Just for reference, patent US7282507B2 is where these values come from.

Biological target: androgen receptor LBD (Panvera) (Rattus norvegicus)
Construct: 5 pmol androgen receptor LBD (Panvera); purchased Panvera
Sequence (P15207 651-882 limits assumed): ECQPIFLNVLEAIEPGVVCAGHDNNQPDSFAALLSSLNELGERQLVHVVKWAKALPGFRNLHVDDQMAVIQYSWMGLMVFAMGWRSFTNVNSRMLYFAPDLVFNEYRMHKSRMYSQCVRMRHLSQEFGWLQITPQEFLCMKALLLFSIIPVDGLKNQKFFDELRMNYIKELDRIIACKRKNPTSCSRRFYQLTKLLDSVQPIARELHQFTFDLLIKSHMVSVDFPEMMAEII
Assay: Androgen Receptor Filtration Binding Assay (PANVERA)
Conditions: [3H] R1881 tracer 0.5 nM; read-out: IC50 (nM), Androgen Receptor Binding (Panvera)
Field 'label' (enum: rule met / rule not met). Set to rule met when IC50 is strictly under 4000 nM; else rule not met.

Query: Take the compound CC(O)(C[S+]([O-])c1ccc(F)cc1)c1cc2cc(Cl)c(C(F)(F)F)cc2[nH]1 (stereo not shown) [Compound 114] and say whether its IC50 is less than 4000 nM.
Result: rule not met

Query: Take the compound CC(O)(CSc1ccc(Cl)cc1)c1cc2nc(C(F)(F)F)ccc2[nH]1 (racemic) [Compound 3] and say whether its IC50 is less than 4000 nM.
Result: rule not met

Query: Take the compound CC(O)(CSc1ccc(Cl)cc1)c1cc2cc(Cl)ccc2n1S(C)(=O)=O (stereo not shown) [Compound 101] and say whether its IC50 is less than 4000 nM.
Result: rule met

Query: Take the compound CC(C)(C)c1ccc(C(=O)OCC(C)(O)c2cc3cc([N+](=O)[O-])c(C(F)(F)F)cc3[nH]2)cc1 (stereo not shown) [Compound 80] and say whether its IC50 is less than 4000 nM.
Result: rule not met

Query: Take the compound CC(O)(COC(=O)c1ccc([N+](=O)[O-])cc1)c1cc2cc([N+](=O)[O-])c(C(F)(F)F)cc2[nH]1 (stereo not shown) [Compound 63] and say whether its IC50 is less than 4000 nM.
Result: rule met

Query: Take the compound CC(O)(C[S+]([O-])c1ccc(Cl)c(Cl)c1)c1cc2cc(Cl)c(C(F)(F)F)cc2[nH]1 (stereo not shown) [Compound 117] and say whether its IC50 is less than 4000 nM.
Result: rule met

---

Biological target: androgen receptor (rat ventral prostate cytosol) (Rattus norvegicus, UniProt P15207)
Construct: from tissue; host or cells: ventral prostate cytosol of castrated male Sprague Dawley or Wistar rats
Experiment: Androgen Receptor Binding Using Rat Ventral Prostate Cytosol
Settings: read-out: IC50 (nM), Androgen Receptor Binding (Rat Cytosol)
Would you mind telling me the reported IC50 of each entry?
Provide the reading as a plain figure in nM.

Query: Please give measured IC50 of the following entry: CC(O)(COC(=O)c1ccc(Cl)cc1)c1cc2cc([N+](=O)[O-])c(C(F)(F)F)cc2[nH]1 (stereo not shown)
Result: 180

Query: Please give measured IC50 of the following entry: COc1cccc(CN2CCC(O)(c3cc4cc([N+](=O)[O-])c(C(F)(F)F)cc4[nH]3)CC2)c1 [Compound 38]
Result: 8800

Query: Please give measured IC50 of the following entry: O=[N+]([O-])c1cc2cc(C3(O)CCN(Cc4ccc(Cl)cc4)CC3)[nH]c2cc1C(F)(F)F [Compound 40]
Result: 3800

Query: Please give measured IC50 of the following entry: OC1(c2cc3cc(Cl)c(C(F)(F)F)cc3[nH]2)CCN(Cc2ccc(C(F)(F)F)cc2)CC1
Result: 29000

Query: Please give measured IC50 of the following entry: COc1ccc(CN2CCC(O)(c3cc4cc(Cl)c(C(F)(F)F)cc4[nH]3)CC2)cc1
Result: 4200

Query: Please give measured IC50 of the following entry: CC(O)(CSc1ccc(Cl)cc1)c1cc2cc(Cl)ccc2[nH]1 (stereo not shown)
Result: 140

Query: Please give measured IC50 of the following entry: CC(C)(C)c1ccc(CN2CCC(O)(c3cc4cc(Cl)c(C(F)(F)F)cc4[nH]3)CC2)cc1
Result: 43000

Query: Please give measured IC50 of the following entry: CC(O)(Sc1ccc(Cl)c(Cl)c1)c1cc2cc([N+](=O)[O-])c(C(F)(F)F)cc2[nH]1 (racemic)
Result: 670

Query: Please give measured IC50 of the following entry: O=[N+]([O-])c1cc2cc(C3(O)CCN(Cc4ccc(Cl)c(Cl)c4)CC3)[nH]c2cc1C(F)(F)F
Result: 9100

Query: Please give measured IC50 of the following entry: CC(O)(CSc1ccccc1Cl)c1cc2cc(Cl)c(C(F)(F)F)cc2[nH]1 (stereo not shown)
Result: 240

Query: Please give measured IC50 of the following entry: CC(O)(COC(=O)c1c(Cl)cccc1Cl)c1cc2cc([N+](=O)[O-])c(C(F)(F)F)cc2[nH]1 (stereo not shown)
Result: 79

Query: Please give measured IC50 of the following entry: COc1cccc(CN2CCC(O)(c3cc4cc(Cl)c(C(F)(F)F)cc4[nH]3)CC2)c1
Result: 4700

Query: Please give measured IC50 of the following entry: CS(=O)(=O)n1c(C2(O)CCNCC2)cc2cc(Cl)c(C(F)(F)F)cc21
Result: 6000

Query: Please give measured IC50 of the following entry: OC1(c2cc3cc(Cl)c(C(F)(F)F)cc3[nH]2)CCN(Cc2ccc(F)cc2)CC1
Result: 7000
